System: A498 renal
Experiment: NCI tumour cell line growth inhibition, 48 h; in the data active means GI50 below about 0.43 µM; inactive means the rest
Outcomes you can answer with include only these: yes = active, no = inactive

Record excerpt, results attached:
O=C(NCCNc1nccc(-c2c(-c3ccc(F)cc3)nc3sccn23)n1)Nc1cccc(C(F)(F)F)c1	no
Cc1ccc([I+]c2ccc(C)cc2)cc1	no

Moving on to another compound below.
Hello, I am checking results. What call was entered for Nc1n[nH]c2ccc([C@H]3[C@@H]4C5CCC(C5)[C@@H]4c4c(ccc5[nH]ncc45)N3S(=O)(=O)C3CC3)cc12 (stereo partly drawn) ? yes

* * *

Tested on: SK-MEL-2 melanoma
Test: NCI tumour cell line growth inhibition, 48 h; in the data active means GI50 below about 0.43 µM; inactive means the rest
Outcomes you can answer with include only these: yes (active), no (inactive)

COc1ncnn2ccc(-c3cnc4nc(C)n(Cc5nnc(C(C)F)o5)c4c3)c12 (stereo not given)	yes

Hello, I am checking results. What call was entered for COc1ccc2c(c1)OC(N)=C(C#N)C2c1ccc(F)c(F)c1 (stereo not given) ? yes

Hello, I am checking results. What call was entered for CC(=O)NS(=O)(=O)c1ccc(-n2nc(-c3ccccc3)cc2-c2cc(O)ccc2O)cc1 ? no

Hello, I am checking results. What call was entered for O=C(NCCNc1nccc(-c2c(-c3ccc(F)cc3)nc3sccn23)n1)Nc1cccc(C(F)(F)F)c1 ? no

Hello, I am checking results. What call was entered for Cc1cccc2c1NC(=O)[C@@H](NC(=O)[C@H](CCC(F)(F)F)[C@H](CCC(F)(F)F)C(N)=O)N=C2c1cccc(F)c1 ? no

Hello, I am checking results. What call was entered for COc1cc2cc(Oc3ccc(NC(=O)Nc4ccc(F)c(C(F)(F)F)c4)cc3)c(C)nc2cc1OCCN1CCOCC1 ? no

Hello, I am checking results. What call was entered for O=C1NC(=N[C@@H]2C[C@H]2c2ccccc2)S/C1=C\c1ccc2ncccc2c1 ? no

Hello, I am checking results. What call was entered for COC(=O)Nc1nc2ccc(C(=O)C3CC3)cc2[nH]1 ? no

Hello, I am checking results. What call was entered for O=C(/C=C/c1cccnc1)c1ccccc1 ? no

* * *

Tested on: OVCAR-5 ovarian
Assay: NCI tumour cell line growth inhibition, 48 h
propertyName: TGI

# example entries with known answers
O=C(O)c1ccc(NCn2nc(-c3ccccc3O)oc2=S)cc1O	> 100 µM
CC(C)C1=CC23CCC4C(C)(C(=O)O)CCCC4(C)C2CC1C1C(=O)N(c2ccc(N4C(=O)C5C6CC7C8(C)CCCC(C)(C(=O)O)C8CCC7(C=C6C(C)C)C5C4=O)cc2)C(=O)C13 (stereo not given)	22 µM
CCNc1nc2c(=O)n(C)c(=O)n(C)c2s1	> 100 µM
Brc1ccc2[nH]cc([C@@H]3CN[C@@H](c4c[nH]c5ccc(Br)cc45)CN3)c2c1	20.6 µM
Cc1cc(C)c2c(=O)cc(-c3ccc(F)cc3)[nH]c2n1	> 100 µM

Provide each entry's TGI from the list below.
1. CC1(C)CCCCC1/C=C/C(CC(O)(C(F)(F)F)C(F)(F)F)=N\Nc1ccc([N+](=O)[O-])cc1[N+](=O)[O-] (stereo not given)
2. CC(C)[C@]12O[C@H]1[C@@H]1O[C@]13[C@]1(O[C@H]1C[C@H]1C4=C(CC[C@@]13C)C(=O)OC4)[C@@H]2OC(=O)OC(C)(C)C
3. CN(CC(=O)O)S(=O)(=O)c1ccc(Cl)cc1
4. [N-]=[N+]=NCC(=O)c1c[nH]c(=O)[nH]c1=O

13.1 µM
> 100 µM
> 100 µM
> 100 µM

Provide each entry's TGI from the list below.
1. O=C(O)COc1ccc2c3c1C(=O)CCC3CO2 (stereo not given)
2. COc1cc(CN(C)N2C(=O)c3cccc4cc([N+](=O)[O-])cc(c34)C2=O)cc(OC)c1OC
3. C/C(=N/NC(=S)Nc1ccccc1C)c1ccccn1
4. Nc1n[nH]c2ccc([C@H]3[C@@H]4C5CCC(C5)[C@@H]4c4c(ccc5[nH]ncc45)N3S(=O)(=O)C3CC3)cc12 (stereo not given in full)

1: > 100 µM; 2: > 100 µM; 3: 10.7 µM; 4: 26.1 µM

Provide each entry's TGI from the list below.
1. CCCc1c(O)c2ccccc2[nH]c1=O
2. O=C1NC(=N[C@@H]2C[C@H]2c2ccccc2)S/C1=C\c1ccc2ncccc2c1

> 100 µM
> 20.7 µM

Data provenance is PubChem BioAssay (NCI).
